System: HBMEC
Protocol Text: MTT cell proliferation, HBMEC control cells
Format: cell-based, human
Assay Context: day 3
Assay Endpoint: Cell proliferation at d 3 HBMEC Max inhibition, % (%)
// units = %; emit number, no label

Example cases with answers are listed next.
Record request: Cell proliferation at d 3 HBMEC Max inhibition, % value, item NCCN1CCN(CC/C=C2/c3ccccc3Sc3ccc(C(F)(F)F)cc32)CC1 [ZUc]
68.8

Record request: Cell proliferation at d 3 HBMEC Max inhibition, % value, item O=c1c2ccccc2sn1-c1ccc(Cl)cc1 [EB3]
75.1

Record request: Cell proliferation at d 3 HBMEC Max inhibition, % value, item CC(=O)OCCN1CCN(CC/C=C2/c3ccccc3Sc3ccc(Cl)cc32)CC1 [ZU5]
24.5

***
Record request: Cell proliferation at d 3 HBMEC Max inhibition, % value, item Cc1ccc(-n2sc3ccccc3c2=O)cc1 [EB2]
29.5

Record request: Cell proliferation at d 3 HBMEC Max inhibition, % value, item O=C1c2ccccc2[Se](=O)N1c1ccccc1 (centres unmarked) [EB1, Ebselen oxide]
94.4

Sourced from patent US10766873B2
